System: BGC823
Test: Extended test against tumor cell lines (ATPlite)
Assay type: cell-based
Conditions: BGC823 (gastric cancer), 0.016 μM, 72 hours
parameter: Survival rate (%)

INSERT INTO results (compound, parameter, unit_text, meas_value) VALUES
  ('CSc1nccc(N2CCC(N(C)Cc3c(Cl)cccc3Cl)CC2)n1 [Example 49]', 'Survival rate', '%', 102.8),
  ('CSc1nccc(N2CCC(N(C)Cc3ccc(C#N)cc3)CC2)n1 [Example 36]', 'Survival rate', '%', 96.6),
  ('CSc1nccc(N2CCC(N(C)Cc3ccccc3Cl)CC2)n1 [Example 47]', 'Survival rate', '%', 99.8),
  ('CSc1nccc(N2CCC(N(C)Cc3c(F)cccc3Cl)CC2)n1 [Example 37]', 'Survival rate', '%', 97.6),
  ('CSc1nccc(N2CCC(N(C)Cc3ccc(Cl)cc3Cl)CC2)n1 [Example 40]', 'Survival rate', '%', 98.3);

* * *

Assay: Mice pharmacokinetic evaluation (LC-MS/MS of plasma)
Assay type: in vivo, ICR mice
Settings: male, ICR, mouse, plasma, iv, 1 mg/kg, IV 1.0 mg/kg, Mean ± SD, n = 3; read-out: Tmax
parameter: Tmax (min)

INSERT INTO measurements (smiles_record, unit_text, meas_value) VALUES
  ('CSc1nccc(N2CCC(N(C)Cc3ccc(C#N)cc3)CC2)n1', 'min', 3);

* * *

In this section, each of the compounds is paired with its reported Survival rate.
System: HepG2
Assay: Extended test against tumor cell lines (ATPlite)
Assay type: cell-based
Conditions: HepG2 (liver cancer), 4 μM, 72 hours
From the text: The compounds of Examples 36/37/40/47/49 were used to carry out extended test against tumor cell lines, wherein 12 kinds of cells were selected, including liver cancer cells, gastric cancer cells, pancreatic cancer cells, colorectal cancer cells, lung cancer cells and normal cells, which were shown in Table 12: […]
parameter: Survival rate

INSERT INTO results (compound, meas_value) VALUES
  ('CSc1nccc(N2CCC(N(C)Cc3ccccc3Cl)CC2)n1 [Example 47]', '7.3%'),
  ('CSc1nccc(N2CCC(N(C)Cc3c(Cl)cccc3Cl)CC2)n1 [Example 49]', '2.4%'),
  ('CSc1nccc(N2CCC(N(C)Cc3c(F)cccc3Cl)CC2)n1 [Example 37]', '5.6%'),
  ('CSc1nccc(N2CCC(N(C)Cc3ccc(C#N)cc3)CC2)n1 [Example 36]', '4.5%'),
  ('CSc1nccc(N2CCC(N(C)Cc3ccc(Cl)cc3Cl)CC2)n1 [Example 40]', '4.5%');

* * *

Experiment: Mice pharmacokinetic evaluation (LC-MS/MS of plasma)
Format: in vivo, ICR mice
Conditions: male, ICR, mouse, plasma, iv, 1 mg/kg, IV 1.0 mg/kg, individual mice 4-6; read-out: Cmax
parameter: Cmax (ng/mL)

INSERT INTO measurements (compound, parameter, meas_value) VALUES
  ('CSc1nccc(N2CCC(N(C)Cc3ccc(C#N)cc3)CC2)n1 [Example 36]', 'Cmax', 99.3);

* * *

Test: Mice pharmacokinetic evaluation (LC-MS/MS of plasma)
Type: in vivo, ICR mice
Settings: male, ICR, mouse, plasma, iv, 1 mg/kg, intravenous 1.0 mg/kg, 0.08 h, Mean; read-out: Plasma concentration of active compound
parameter: concentration at 0.08 h (ng/mL)

INSERT INTO results (smiles_record, parameter, meas_value) VALUES
  ('CSc1nccc(N2CCC(N(C)Cc3ccc(C#N)cc3)CC2)n1', 'concentration at 0.08 h', 74.5);
